Molecular target: PI3K (p110β/p85α) (Homo sapiens, UniProt P42338)
Sequence (P42338 whole entry, one chain of several): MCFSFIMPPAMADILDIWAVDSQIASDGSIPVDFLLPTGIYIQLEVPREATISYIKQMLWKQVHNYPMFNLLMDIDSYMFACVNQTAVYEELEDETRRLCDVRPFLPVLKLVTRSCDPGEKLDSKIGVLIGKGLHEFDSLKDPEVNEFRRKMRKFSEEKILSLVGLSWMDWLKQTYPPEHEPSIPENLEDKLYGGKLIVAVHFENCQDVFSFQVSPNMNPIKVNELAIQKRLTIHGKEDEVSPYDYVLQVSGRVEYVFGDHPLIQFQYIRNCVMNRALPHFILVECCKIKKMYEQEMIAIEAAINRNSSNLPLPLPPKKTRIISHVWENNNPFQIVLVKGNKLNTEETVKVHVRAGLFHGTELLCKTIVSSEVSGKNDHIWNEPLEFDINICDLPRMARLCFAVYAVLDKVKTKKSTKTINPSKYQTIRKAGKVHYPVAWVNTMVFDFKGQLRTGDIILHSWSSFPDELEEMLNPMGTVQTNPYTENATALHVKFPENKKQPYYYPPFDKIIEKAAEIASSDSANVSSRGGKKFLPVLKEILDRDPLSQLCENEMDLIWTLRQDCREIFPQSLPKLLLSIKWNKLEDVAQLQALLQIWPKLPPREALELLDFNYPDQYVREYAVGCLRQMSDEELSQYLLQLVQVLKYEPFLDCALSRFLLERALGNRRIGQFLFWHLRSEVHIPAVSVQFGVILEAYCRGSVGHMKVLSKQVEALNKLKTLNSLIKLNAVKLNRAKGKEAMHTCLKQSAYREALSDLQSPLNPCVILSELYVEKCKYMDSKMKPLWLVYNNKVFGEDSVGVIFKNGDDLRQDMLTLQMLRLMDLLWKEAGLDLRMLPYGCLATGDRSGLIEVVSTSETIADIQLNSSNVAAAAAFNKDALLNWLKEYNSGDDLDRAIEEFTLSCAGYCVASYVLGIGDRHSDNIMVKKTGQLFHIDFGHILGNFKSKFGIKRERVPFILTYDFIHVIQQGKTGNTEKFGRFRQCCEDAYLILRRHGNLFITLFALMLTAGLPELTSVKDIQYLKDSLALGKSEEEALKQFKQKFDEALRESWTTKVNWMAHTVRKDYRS
Experiment: PI3Kβ assay (ADP-Glo Kinase Assay)
Assay type: biochemical
Details: read-out: Enzyme activity IC50 PI3Kβ
parameter-measured: IC50 (µM)

Consider the following illustrative entries.
molecule | IC50 / µM
Cc1nc([C@@H](C)c2cc(Cl)c(F)c(C(=O)NC[C@@H]3CCCO3)c2OC(C)C)n2ccnc(N)c12 | 16
CCCNC(=O)c1c(F)c(Cl)cc([C@H](C)c2nc(C)c3c(N)nccn23)c1OC(C)C | 4.9

1: CCNC(=O)c1c(F)c(Cl)cc([C@H](C)c2nc(C)c3c(N)nccn23)c1OC(C)C
2: Cc1nc(C(C)c2cc(Cl)c(F)c(C(=O)N3CCOCC3)c2OC(C)C)n2ccnc(N)c12 (stereo not shown) [Compound 4]
Challenge: Please choose the item with the lower IC50 value from this pair: 1 and 2 # reply format: chosen label
Response given: 1

----------
Target: PI3K (p110δ/p85α) (Homo sapiens)
Sequence (O00329 whole entry): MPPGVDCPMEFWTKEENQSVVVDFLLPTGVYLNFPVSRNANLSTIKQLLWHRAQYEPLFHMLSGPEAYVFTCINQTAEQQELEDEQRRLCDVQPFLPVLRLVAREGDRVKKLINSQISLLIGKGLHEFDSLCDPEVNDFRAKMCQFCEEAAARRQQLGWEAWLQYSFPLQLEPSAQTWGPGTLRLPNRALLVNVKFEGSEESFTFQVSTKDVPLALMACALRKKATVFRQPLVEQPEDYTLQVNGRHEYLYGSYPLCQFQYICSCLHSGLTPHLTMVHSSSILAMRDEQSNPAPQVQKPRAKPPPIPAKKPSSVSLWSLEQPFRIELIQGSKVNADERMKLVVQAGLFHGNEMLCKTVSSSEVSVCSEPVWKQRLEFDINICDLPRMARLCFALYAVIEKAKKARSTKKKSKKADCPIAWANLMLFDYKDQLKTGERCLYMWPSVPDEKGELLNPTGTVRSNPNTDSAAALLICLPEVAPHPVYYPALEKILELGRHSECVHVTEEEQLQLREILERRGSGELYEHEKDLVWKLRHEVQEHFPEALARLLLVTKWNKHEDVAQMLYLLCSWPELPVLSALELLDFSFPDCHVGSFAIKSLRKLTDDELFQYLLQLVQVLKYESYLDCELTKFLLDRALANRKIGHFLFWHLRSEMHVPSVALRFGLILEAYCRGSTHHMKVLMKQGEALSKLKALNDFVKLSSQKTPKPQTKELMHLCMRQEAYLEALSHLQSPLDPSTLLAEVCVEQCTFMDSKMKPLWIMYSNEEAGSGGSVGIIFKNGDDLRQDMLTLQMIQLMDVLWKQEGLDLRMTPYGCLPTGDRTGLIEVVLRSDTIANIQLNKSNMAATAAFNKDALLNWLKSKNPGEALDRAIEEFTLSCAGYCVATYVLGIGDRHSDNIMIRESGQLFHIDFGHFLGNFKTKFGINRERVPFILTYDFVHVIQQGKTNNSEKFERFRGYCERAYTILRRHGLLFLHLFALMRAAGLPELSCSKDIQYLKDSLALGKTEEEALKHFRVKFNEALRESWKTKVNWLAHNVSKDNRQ
Sequence (P27986 whole entry partner): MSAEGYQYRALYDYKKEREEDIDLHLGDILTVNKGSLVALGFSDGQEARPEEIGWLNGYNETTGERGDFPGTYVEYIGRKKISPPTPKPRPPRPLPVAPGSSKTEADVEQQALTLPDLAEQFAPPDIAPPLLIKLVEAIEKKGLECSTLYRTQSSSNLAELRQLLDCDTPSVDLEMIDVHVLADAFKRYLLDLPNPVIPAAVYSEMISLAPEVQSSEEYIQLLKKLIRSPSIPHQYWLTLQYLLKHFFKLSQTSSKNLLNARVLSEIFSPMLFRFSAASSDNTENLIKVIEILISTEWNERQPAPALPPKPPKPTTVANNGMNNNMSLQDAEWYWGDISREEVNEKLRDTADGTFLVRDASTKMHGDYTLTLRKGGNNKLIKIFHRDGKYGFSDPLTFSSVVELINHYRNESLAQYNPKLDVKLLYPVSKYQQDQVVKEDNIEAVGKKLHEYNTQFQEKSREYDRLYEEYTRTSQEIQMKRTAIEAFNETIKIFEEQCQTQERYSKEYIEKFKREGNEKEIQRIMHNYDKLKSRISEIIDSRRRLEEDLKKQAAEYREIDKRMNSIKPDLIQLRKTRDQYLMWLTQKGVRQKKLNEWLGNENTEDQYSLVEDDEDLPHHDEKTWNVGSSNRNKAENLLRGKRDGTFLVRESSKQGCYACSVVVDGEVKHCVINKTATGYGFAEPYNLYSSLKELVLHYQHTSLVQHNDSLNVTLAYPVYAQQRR
Experiment: PI3Kδ assay (ADP-Glo Kinase Assay)
Assay type: biochemical
Settings: recombinant enzyme; IC50 (nM) or max inhibition (%) at 0.5 μM
parameter-measured: IC50 (nM)

The examples below pair each entry with its known result.
molecule | target-desc | parameter-measured | value-observed
Cc1nc(C(C)c2cc(Cl)c(F)c(C(=O)N[C@H]3CC[C@@H](O)C3)c2OC(C)C)n2ccnc(N)c12 (single isomer, unassigned) [Compound 14B] | PI3K (p110δ/p85α) (Homo sapiens) | IC50 | 320
Cc1nc([C@@H](C)c2cc(Cl)c(F)c(C(=O)NC[C@H]3CCCO3)c2OC(C)C)n2ccnc(N)c12 | PI3K (p110δ/p85α) (Homo sapiens) | IC50 | 3.1

1: CCCNC(=O)c1c(F)c(Cl)cc([C@H](C)c2nc(C)c3c(N)nccn23)c1OC(C)C
2: Cc1nc(C(C)c2cc(Cl)c(F)c(C(=O)N3CC(C(=O)O)C3)c2OC(C)C)n2ccnc(N)c12 (stereo not shown)
Challenge: Which is greater in IC50, the first item 1 or the second item 2 ? Identify your selection by its label.
Response given: 2

----------
Target: PI3K (p110β/p85α) (Homo sapiens, UniProt P42338)
Assay: PI3Kβ assay (ADP-Glo Kinase Assay)
Assay type: biochemical
Settings: read-out: Enzyme activity IC50 PI3Kβ
parameter-measured: IC50 (µM)

Recorded results for 4 molecules are shown here.
molecule | target-desc | unit | value-observed
Cc1nc([C@@H](C)c2cc(Cl)c(F)c(C(=O)NCC3CCCOC3)c2OC(C)C)n2ccnc(N)c12 (some centres unmarked) [Compound 50] | PI3K (p110β/p85α) (Homo sapiens, UniProt P42338) | µM | 20
Cc1nc([C@@H](C)c2cc(Cl)c(F)c(C(=O)NCC3CCOCC3)c2OC(C)C)n2ccnc(N)c12 [Compound 51] | PI3K (p110β/p85α) (Homo sapiens, UniProt P42338) | µM | 6.4
Cc1nc([C@@H](C)c2cc(Cl)c(F)c(C(=O)N[C@@H]3CCCOC3)c2OC(C)C)n2ccnc(N)c12 [Compound 44] | PI3K (p110β/p85α) (Homo sapiens, UniProt P42338) | µM | 30
Cc1nc([C@@H](C)c2cc(Cl)c(F)c(C(=O)N[C@]3(C)C[C@H](O)C3)c2OC(C)C)n2ccnc(N)c12 [Compound 38] | PI3K (p110β/p85α) (Homo sapiens, UniProt P42338) | µM | 25

a: Cc1nc([C@@H](C)c2cc(Cl)c(F)c(C(=O)N[C@@H](C)c3ccnc(C(F)(F)F)c3)c2OC(C)C)n2ccnc(N)c12 [Compound 59A]
b: Cc1nc([C@@H](C)c2cc(Cl)c(F)c(C(=O)N[C@H]3CCCC[C@@H]3O)c2OC(C)C)n2ccnc(N)c12 [Compound 46]
Challenge: For this pair, a and b , which shows a numerically higher IC50? Bench note: the answer is the label of the chosen record.
Response given: b

----------
Target: PI3K (p110α/p85α) (Homo sapiens, UniProt P42336)
Sequence (P42336 whole entry, one chain of several): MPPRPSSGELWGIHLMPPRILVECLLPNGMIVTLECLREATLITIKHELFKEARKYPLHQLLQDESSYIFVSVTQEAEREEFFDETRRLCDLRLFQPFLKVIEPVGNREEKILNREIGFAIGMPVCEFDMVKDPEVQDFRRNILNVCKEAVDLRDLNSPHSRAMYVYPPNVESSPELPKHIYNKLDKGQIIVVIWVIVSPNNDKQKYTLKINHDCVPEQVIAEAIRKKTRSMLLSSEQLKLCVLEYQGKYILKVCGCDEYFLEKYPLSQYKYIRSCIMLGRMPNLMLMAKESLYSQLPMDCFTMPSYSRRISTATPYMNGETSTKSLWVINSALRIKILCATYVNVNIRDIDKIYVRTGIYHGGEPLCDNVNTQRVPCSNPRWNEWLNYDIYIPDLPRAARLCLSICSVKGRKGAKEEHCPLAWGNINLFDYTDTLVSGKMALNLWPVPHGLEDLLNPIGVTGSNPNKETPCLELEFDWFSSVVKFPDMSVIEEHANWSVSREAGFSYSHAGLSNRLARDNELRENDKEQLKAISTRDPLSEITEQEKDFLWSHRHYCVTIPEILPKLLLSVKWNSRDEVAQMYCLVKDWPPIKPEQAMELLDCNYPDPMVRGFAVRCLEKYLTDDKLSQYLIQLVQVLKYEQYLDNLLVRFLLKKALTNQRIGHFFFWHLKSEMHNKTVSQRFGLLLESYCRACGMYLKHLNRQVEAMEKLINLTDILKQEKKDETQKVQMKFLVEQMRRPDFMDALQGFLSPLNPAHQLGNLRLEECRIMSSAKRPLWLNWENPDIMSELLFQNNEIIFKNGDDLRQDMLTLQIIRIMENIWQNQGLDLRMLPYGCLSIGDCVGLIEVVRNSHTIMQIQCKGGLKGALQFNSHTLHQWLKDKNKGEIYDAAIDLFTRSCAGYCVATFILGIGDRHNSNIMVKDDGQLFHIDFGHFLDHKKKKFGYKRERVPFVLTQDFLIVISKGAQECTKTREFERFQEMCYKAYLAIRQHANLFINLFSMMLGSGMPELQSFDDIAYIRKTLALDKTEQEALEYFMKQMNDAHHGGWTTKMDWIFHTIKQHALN
Experiment: PI3Kα assay (ADP-Glo Kinase Assay)
Assay type: biochemical
Settings: recombinant enzyme; IC50 (nM) or max inhibition (%) at 0.5 μM
parameter-measured: IC50 (nM)

// worked examples, IC50 included
compound | target-desc | IC50 (nM)
Cc1nc([C@@H](C)c2cc(Cl)c(F)c(C(=O)N3CC4(CCOC4)C3)c2OC(C)C)n2ccnc(N)c12 [Compound 68] | PI3K (p110α/p85α) (Homo sapiens, UniProt P42336) | 40000
Cc1nc([C@@H](C)c2cc(Cl)c(F)c(C(=O)N[C@@H]3CCC[C@H]3O)c2OC(C)C)n2ccnc(N)c12 [Compound 58] | PI3K (p110α/p85α) (Homo sapiens, UniProt P42336) | 14000
Cc1nc([C@@H](C)c2cc(Cl)c(F)c(C(=O)N[C@@H]3CCCOC3)c2OC(C)C)n2ccnc(N)c12 [Compound 44] | PI3K (p110α/p85α) (Homo sapiens, UniProt P42336) | 20000

I: Cc1nc([C@@H](C)c2cc(Cl)c(F)c(C(=O)NC[C@H]3CCOC3)c2OC(C)C)n2ccnc(N)c12 [Compound 34]
II: Cc1nc(C(C)c2cc(Cl)c(F)c(C(=O)N[C@H]3CC[C@@H](O)C3)c2OC(C)C)n2ccnc(N)c12 (single isomer, unassigned) [Compound 14A]
III: Cc1nc([C@@H](C)c2cc(Cl)c(F)c(C(=O)N[C@H]3CC[C@H](O)CC3)c2OC(C)C)n2ccnc(N)c12 [Compound 60]
Challenge: Order each entry by recorded IC50, climbing from the minimum. Write the labels, ordered according to the request.
Response given: III, II, I

----------
Target: PI3K (p110γ) (Homo sapiens, UniProt P48736)
Sequence (P48736 whole entry): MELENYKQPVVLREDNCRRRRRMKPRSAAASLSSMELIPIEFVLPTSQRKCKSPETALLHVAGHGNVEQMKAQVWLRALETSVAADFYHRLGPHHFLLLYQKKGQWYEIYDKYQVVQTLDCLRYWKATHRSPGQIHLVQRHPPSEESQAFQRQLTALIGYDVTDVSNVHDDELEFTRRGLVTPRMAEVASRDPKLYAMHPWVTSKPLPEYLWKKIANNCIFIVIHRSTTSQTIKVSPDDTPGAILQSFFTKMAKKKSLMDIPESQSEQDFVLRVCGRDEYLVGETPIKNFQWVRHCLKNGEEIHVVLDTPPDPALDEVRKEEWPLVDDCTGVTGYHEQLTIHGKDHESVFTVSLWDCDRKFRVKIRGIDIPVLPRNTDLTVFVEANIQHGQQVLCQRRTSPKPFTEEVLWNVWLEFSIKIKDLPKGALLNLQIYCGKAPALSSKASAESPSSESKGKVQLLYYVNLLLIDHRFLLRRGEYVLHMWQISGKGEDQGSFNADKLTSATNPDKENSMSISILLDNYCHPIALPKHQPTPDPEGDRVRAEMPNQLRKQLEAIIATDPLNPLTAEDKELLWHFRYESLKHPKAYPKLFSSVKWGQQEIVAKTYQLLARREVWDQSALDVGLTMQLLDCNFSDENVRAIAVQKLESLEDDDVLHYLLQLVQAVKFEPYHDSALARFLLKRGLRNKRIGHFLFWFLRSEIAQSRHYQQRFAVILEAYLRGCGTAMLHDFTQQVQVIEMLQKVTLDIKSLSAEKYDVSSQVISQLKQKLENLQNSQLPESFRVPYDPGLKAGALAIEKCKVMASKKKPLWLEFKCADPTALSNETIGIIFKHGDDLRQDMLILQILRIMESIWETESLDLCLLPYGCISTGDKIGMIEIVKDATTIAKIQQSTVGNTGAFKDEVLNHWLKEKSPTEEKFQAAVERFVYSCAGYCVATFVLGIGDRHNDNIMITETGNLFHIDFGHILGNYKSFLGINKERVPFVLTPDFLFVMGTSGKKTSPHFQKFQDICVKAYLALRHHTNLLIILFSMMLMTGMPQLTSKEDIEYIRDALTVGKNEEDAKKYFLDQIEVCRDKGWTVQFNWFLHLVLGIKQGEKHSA
Assay: PI3Kγ assay (ADP-Glo Kinase Assay)
Assay type: biochemical
Details: recombinant enzyme; IC50 (nM) or max inhibition (%) at 0.5 μM
parameter-measured: IC50 (nM)

Some solved cases for reference:
compound | target-desc | IC50 / nM
Cc1nc([C@@H](C)c2cc(Cl)c(F)c(C(=O)N[C@H]3CCCC[C@@H]3O)c2OC(C)C)n2ccnc(N)c12 | PI3K (p110γ) (Homo sapiens, UniProt P48736) | 2100
CCOCC1(NC(=O)c2c(F)c(Cl)cc([C@H](C)c3nc(C)c4c(N)nccn34)c2OC(C)C)CC1 | PI3K (p110γ) (Homo sapiens, UniProt P48736) | 6700
CCNC(=O)c1c(F)c(Cl)cc([C@H](C)c2nc(C)c3c(N)nccn23)c1OC(C)C | PI3K (p110γ) (Homo sapiens, UniProt P48736) | 4800
Cc1nc(C(C)c2cc(Cl)c(F)c(C(=O)NC3CC3)c2OC(C)C)n2ccnc(N)c12 (stereo not drawn) | PI3K (p110γ) (Homo sapiens, UniProt P48736) | 7300
Cc1nc([C@@H](C)c2cc(Cl)c(F)c(C(=O)N[C@H]3CC[C@H](O)C3)c2OC(C)C)n2ccnc(N)c12 | PI3K (p110γ) (Homo sapiens, UniProt P48736) | 3400
Cc1nc([C@@H](C)c2cc(Cl)c(F)c(C(=O)N[C@H]3CC[C@H](O)CC3)c2OC(C)C)n2ccnc(N)c12 | PI3K (p110γ) (Homo sapiens, UniProt P48736) | 6300
Cc1nc([C@@H](C)c2cc(Cl)c(F)c(C(=O)NCC3CC3)c2OC(C)C)n2ccnc(N)c12 | PI3K (p110γ) (Homo sapiens, UniProt P48736) | 4800
Cc1nc([C@@H](C)c2cc(Cl)c(F)c(C(=O)N3CC4(CCOC4)C3)c2OC(C)C)n2ccnc(N)c12 | PI3K (p110γ) (Homo sapiens, UniProt P48736) | 4600
COC1CCN(C(=O)c2c(F)c(Cl)cc([C@H](C)c3nc(C)c4c(N)nccn34)c2OC(C)C)CC1 | PI3K (p110γ) (Homo sapiens, UniProt P48736) | 10000
Cc1nc(C(C)c2cc(Cl)c(F)c(C(=O)N3CCOCC3)c2OC(C)C)n2ccnc(N)c12 (stereo not drawn) [Compound 4] | PI3K (p110γ) (Homo sapiens, UniProt P48736) | 3100

I: Cc1nc([C@@H](C)c2cc(Cl)c(F)c(C(=O)N[C@@H]3CCCOC3)c2OC(C)C)n2ccnc(N)c12
II: Cc1nc(C(C)c2cc(Cl)c(F)c(C(=O)N3CC[C@H](O)C3)c2OC(C)C)n2ccnc(N)c12 (stereo partly drawn)
Challenge: Lab notebook, comparison: I versus II , higher IC50 goes to which? Refer to your chosen entry by its label in the reply.
Response given: II

----------
Target: PI3K (p110γ) (Homo sapiens, UniProt P48736)
Experiment: PI3Kγ assay (ADP-Glo Kinase Assay)
Format: biochemical
Conditions: recombinant enzyme; IC50 (nM) or max inhibition (%) at 0.5 μM
parameter-measured: IC50 (nM)

Recorded IC50, per entry:
compound | IC50 (nM)
Cc1nc([C@@H](C)c2cc(Cl)c(F)c(C(=O)NCCC3CCOCC3)c2OC(C)C)n2ccnc(N)c12 [Compound 26] | 6500
Cc1nc(C(C)c2cc(Cl)c(F)c(C(=O)N3CCC(O)CC3)c2OC(C)C)n2ccnc(N)c12 (centres unmarked) [Compound 7] | 17000
Cc1nc([C@@H](C)c2cc(Cl)c(F)c(C(=O)N[C@]3(C)C[C@@H](O)C3)c2OC(C)C)n2ccnc(N)c12 [Compound 39] | 28000
CO[C@H]1CCCN(C(=O)c2c(F)c(Cl)cc([C@H](C)c3nc(C)c4c(N)nccn34)c2OC(C)C)C1 [Compound 65] | 6900
Cc1nc([C@@H](C)c2cc(Cl)c(F)c(C(=O)N[C@H]3C[C@@H](O)C3)c2OC(C)C)n2ccnc(N)c12 [Compound 63] | 4200

P: Cc1nc([C@@H](C)c2cc(Cl)c(F)c(C(=O)NC3(CN4CCN(CC5CC5)CC4)CC3)c2OC(C)C)n2ccnc(N)c12 [Compound 56]
Q: Cc1nc([C@@H](C)c2cc(Cl)c(F)c(C(=O)N[C@H]3CCCOC3)c2OC(C)C)n2ccnc(N)c12 [Compound 45]
R: CO[C@H]1CCN(C(=O)c2c(F)c(Cl)cc([C@H](C)c3nc(C)c4c(N)nccn34)c2OC(C)C)C1 [Compound 70]
S: Cc1nc(C(C)c2cc(Cl)c(F)c(C(=O)N3CC(O)C3)c2OC(C)C)n2ccnc(N)c12 (centres unmarked) [Compound 3]
Challenge: Ordering criterion: IC50; begin with the maximum. Form entry: ranked labels (order as requested).
Response given: S, R, P, Q
(S: 19000 nM, R: 6700 nM, P: 4500 nM, Q: 2800 nM)

Data provenance is patent US11905294B2.
